All values here come from paper PMC3317675.

- Assayed system: mGAT1 (Mus musculus)
- Assay overview: [3H]GABA uptake inhibition, stable CHO cells
- Type: cell-based
- Parameters: gene Slc6a1; full-length ORF in pcDNA3; no tag mentioned
Property name: IC50 (µM)
The response must be a number in µM with no trailing unit.

// worked examples, IC50 included
Query :: Give its IC50 value. Item: CNCCCC1c2ccccc2C=Cc2ccccc21 [Protriptyline]
Result :: 167

Query :: Entry CN(C)CCC=C1c2ccccc2CCc2ccccc21 [Amitriptyline] please
Result :: 101

Further cases:
Query :: Give its IC50 value. Item: CN(C)CCCN1c2ccccc2CCc2ccccc21 [Imipramine]
Result :: 223

* * *

- Assayed system: mGAT3 (Mus musculus)
- Assay overview: [3H]GABA uptake inhibition, stable CHO cells
- Type: cell-based
- Parameters: gene Slc6a11; RIKEN FANTOM cDNA in pcDNA3; no tag mentioned
Readings of IC50 for the listed molecules
The response must be a number in µM with no trailing unit.

Query :: Give its IC50 value. Item: CN(C)CCC=C1c2ccccc2CCc2ccccc21
Result :: 61.5

Further cases:
Query :: Give its IC50 value. Item: CNCCCC1c2ccccc2C=Cc2ccccc21
Result :: 113

Query :: Entry CN(C)CCCN1c2ccccc2CCc2ccccc21 please
Result :: 108

* * *

- Assayed system: mGAT1 (Mus musculus, UniProt P31648)
- Assay overview: [3H]GABA uptake inhibition, stable CHO cells
- Assay type: cell-based
- Set-up: gene Slc6a1; full-length ORF in pcDNA3; no tag mentioned
Property name: IC50
Please give the number followed by its unit.

// worked examples, IC50 included
Query :: Recorded IC50 for CNCCCN1c2ccccc2CCc2ccccc21 [Desipramine] with mGAT1 (Mus musculus, UniProt P31648), please?
Result :: 268 µM

Query :: Entry CC(CN(C)C)CN1c2ccccc2CCc2ccccc21 (stereo not drawn) [Trimipramine] please
Result :: 181 µM

We next turn to a different molecule, shown below.
Query :: Recorded IC50 for CNCCC=C1c2ccccc2CCc2ccccc21 [Nortriptyline] with mGAT1 (Mus musculus, UniProt P31648), please?
Result :: 136 µM

* * *

- Assayed system: mGAT3 (Mus musculus, UniProt P31650)
- Sequence (P31650 1-627): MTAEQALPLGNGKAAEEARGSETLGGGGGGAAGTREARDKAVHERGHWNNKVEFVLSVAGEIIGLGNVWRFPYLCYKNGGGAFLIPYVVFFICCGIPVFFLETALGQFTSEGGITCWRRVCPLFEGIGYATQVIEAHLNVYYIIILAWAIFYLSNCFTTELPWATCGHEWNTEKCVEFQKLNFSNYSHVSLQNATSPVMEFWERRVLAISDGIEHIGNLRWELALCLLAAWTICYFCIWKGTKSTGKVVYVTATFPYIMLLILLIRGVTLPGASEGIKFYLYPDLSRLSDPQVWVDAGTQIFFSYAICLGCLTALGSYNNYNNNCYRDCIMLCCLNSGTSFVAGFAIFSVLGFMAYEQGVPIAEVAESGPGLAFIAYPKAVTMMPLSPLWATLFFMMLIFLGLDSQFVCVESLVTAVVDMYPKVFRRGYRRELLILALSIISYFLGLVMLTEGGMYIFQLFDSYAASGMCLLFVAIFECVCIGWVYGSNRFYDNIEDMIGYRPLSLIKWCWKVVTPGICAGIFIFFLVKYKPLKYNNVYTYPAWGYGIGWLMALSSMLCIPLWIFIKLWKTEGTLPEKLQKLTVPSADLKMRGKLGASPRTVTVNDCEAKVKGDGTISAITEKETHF
- Assay overview: [3H]GABA uptake inhibition, stable CHO cells
- Format: cell-based
- Design: gene Slc6a11; RIKEN FANTOM cDNA in pcDNA3; no tag mentioned
Readings of IC50 for the listed compounds
Please give the number followed by its unit.

// worked examples, IC50 included
Query :: Give its IC50 value. Item: CNCCC=C1c2ccccc2CCc2ccccc21
Result :: 74.1 µM

Query :: Entry CC(CN(C)C)CN1c2ccccc2CCc2ccccc21 (stereo not drawn) please
Result :: 64.6 µM

We next turn to a different compound, shown below.
Query :: Give its IC50 value. Item: CNCCCN1c2ccccc2CCc2ccccc21
Result :: 80.3 µM
